- Tested on: S. flexenari
- PROCEDURE TEXT: Antibacterial agar well diffusion
- Format: cell-based
- RECORDED CONDITIONS: 24 h, 6.25 mg/mL per well, 37 °C
Kind request: treat 10 mm as inclusive, so zone of inhibition at 6250 µg/mL at 10 mm or higher is MET, anything lower is NOT MET.

- STRUCTURE NOTATION: "S=C(Nc1ccccn1)NC1CCCCC1"
  LABEL VALUE: "NOT MET"

Input: Given the entry S=C(Nc1ccc(Cl)cc1)NC1CCCCC1 , answer whether its zone of inhibition at 6250 µg/mL meets or surpasses 10 mm.
Output: MET

Input: Next compound up: Cc1cccnc1NC(=S)NC1CCCCC1
Output: MET

Input: Next compound up: Cc1cccnc1NC(=S)Nc1ccccc1
Output: MET

Input: Next compound up: S=C(Nc1ccccc1)Nc1cccc(Cl)c1
Output: MET
